This document collects pIC50 values reported for UniProt:Q9UBN7.
pIC50: −log10 of the molar value.

{"Compound": "C[C@H]1COc2cc(-c3noc(C(F)(F)F)n3)cc(F)c2CN1C(=O)Cc1ccncc1", "pIC50": "> 6.70"}
{"Compound": "CC(C)C(=O)N1CCOc2cc(-c3noc(C(F)(F)F)n3)ccc2C1", "pIC50": "6.30 to 6.70"}
{"Compound": "C[C@H]1COc2cc(-c3noc(C(F)(F)F)n3)cc(F)c2CN1C(=O)C1CCOCC1", "pIC50": "> 6.70"}
{"Compound": "C[C@H]1COc2cc(-c3noc(C(F)(F)F)n3)cc(F)c2CN1C(=O)C1(C)CCOCC1", "pIC50": "> 6.70"}
{"Compound": "C[C@H]1COc2cc(-c3noc(C(F)(F)F)n3)cc(F)c2CN1C(=O)C(C)(C)C", "pIC50": "> 6.70"}
{"Compound": "C[C@H]1COc2cc(-c3noc(C(F)(F)F)n3)ccc2CN1S(=O)(=O)C(C)(C)C", "pIC50": "6.30 to 6.70"}
{"Compound": "CC1(C(=O)N2CCOc3cc(-c4noc(C(F)(F)F)n4)cc(F)c3C2)COC1", "pIC50": "> 6.70"}
{"Compound": "CC1(C(=O)N2Cc3ccc(-c4noc(C(F)(F)F)n4)cc3OC[C@@H]2C2CC2)CCOCC1", "pIC50": "> 6.70"}
{"Compound": "COCC1(C(=O)N2Cc3ccc(-c4noc(C(F)(F)F)n4)cc3OC[C@@H]2c2ccccc2)COC1", "pIC50": "> 6.70"}
{"Compound": "CC1(C(=O)N2Cc3ccc(-c4noc(C(F)(F)F)n4)cc3OC[C@@H]2c2ccccc2)CCCOC1 (single isomer, unassigned) [Compound 13]", "pIC50": "> 6.70"}
{"Compound": "C[C@H]1COc2cc(-c3noc(C(F)(F)F)n3)ccc2CN1C(=O)C(C)(C)C", "pIC50": "> 6.70"}
{"Compound": "C[C@H]1COc2cc(-c3noc(C(F)(F)F)n3)ccc2CN1C(=O)C1(C)CCOCC1", "pIC50": "> 6.70"}
{"Compound": "COC[C@H]1COc2cc(-c3noc(C(F)(F)F)n3)ccc2CN1C(=O)C(C)(C)C", "pIC50": "> 6.70"}
{"Compound": "C[C@H]1COc2cc(-c3nnc(C(F)F)o3)ccc2CN1C(=O)C(C)(C)C", "pIC50": "> 6.70"}
{"Compound": "CC(C)(C)C(=O)N1Cc2ccc(-c3noc(C(F)(F)F)n3)cc2OC[C@@H]1c1ccccc1", "pIC50": "6.30 to 6.70"}
{"Compound": "C[C@H]1COc2cc(-c3noc(C(F)(F)F)n3)ccc2CN1C", "pIC50": "6.30 to 6.70"}
{"Compound": "CC(C)N1CCC(C)(C(=O)N2Cc3c(F)cc(-c4noc(C(F)(F)F)n4)cc3OC[C@@H]2C)CC1", "pIC50": "> 6.70"}

====

pIC50: −log10 of the molar value.
This document collects pIC50 values reported for HDAC6 (Homo sapiens (Human)).

{"Compound": "C[C@H]1COc2cc(-c3noc(C(F)(F)F)n3)ccc2CN1S(C)(=O)=O [Compound 33]", "pIC50": "6.30 to 6.70"}
{"Compound": "CC(C)(C)C(=O)N1Cc2ccc(-c3nnc(C(F)F)o3)cc2OC[C@@H]1c1ccccc1 [Compound 22]", "pIC50": "> 6.70"}
{"Compound": "CC(C)(C)OC(=O)N1Cc2ccc(-c3noc(C(F)(F)F)n3)cc2OC[C@@H]1c1ccccc1 [Compound 8]", "pIC50": "5.30 to 6.30"}
{"Compound": "CC1(C(=O)N2Cc3ccc(-c4noc(C(F)(F)F)n4)cc3OCC23CC3)COC1 [Compound 47]", "pIC50": "6.30 to 6.70"}
{"Compound": "COCC1(C(=O)N2Cc3c(F)cc(-c4noc(C(F)(F)F)n4)cc3OC[C@@H]2C)CC1 [Compound 31]", "pIC50": "6.30 to 6.70"}
{"Compound": "CC1Oc2cc(-c3noc(C(F)(F)F)n3)ccc2CNC1=O (centres unmarked) [Compound 50]", "pIC50": "> 6.70"}
{"Compound": "CC(C)(C)C(=O)N1Cc2c(F)cc(-c3noc(C(F)(F)F)n3)cc2OC[C@@H]1c1ccccc1 [Compound 15]", "pIC50": "6.30 to 6.70"}
{"Compound": "COCC(=O)N1Cc2c(F)cc(-c3noc(C(F)(F)F)n3)cc2OC[C@@H]1C [Compound 41]", "pIC50": "> 6.70"}
{"Compound": "C[C@H]1COc2cc(-c3noc(C(F)(F)F)n3)cc(F)c2CN1C(=O)c1ccncc1 [Compound 49]", "pIC50": "6.30 to 6.70"}
{"Compound": "C[C@H]1COc2cc(-c3noc(C(F)(F)F)n3)ccc2CN1CC(F)(F)F [Compound 36]", "pIC50": "5.30 to 6.30"}
{"Compound": "CC(C)C(=O)N1Cc2c(F)cc(-c3noc(C(F)(F)F)n3)cc2OC[C@@H]1C [Compound 38]", "pIC50": "> 6.70"}
{"Compound": "CC(=O)N1CCC(C)(C(=O)N2Cc3c(F)cc(-c4noc(C(F)(F)F)n4)cc3OC[C@@H]2C)CC1 [Compound 48]", "pIC50": "6.30 to 6.70"}
{"Compound": "C[C@H]1COc2cc(-c3noc(C(F)(F)F)n3)cc(F)c2CN1C(=O)C(F)(F)F [Compound 24]", "pIC50": "> 6.70"}
{"Compound": "C[C@H]1COc2cc(-c3noc(C(F)(F)F)n3)cc(F)c2CN1C(=O)CO [Compound 40]", "pIC50": "6.30 to 6.70"}
{"Compound": "CC1(C(=O)N2CCOc3cc(-c4noc(C(F)(F)F)n4)cc(F)c3C2)CCOCC1 [Compound 28]", "pIC50": "> 6.70"}
{"Compound": "C[C@H]1COc2cc(-c3noc(C(F)(F)F)n3)cc(F)c2CN1C(=O)CN(C)C [Compound 43]", "pIC50": "6.30 to 6.70"}
{"Compound": "O=C(C1CCOCC1)N1CCOc2cc(-c3noc(C(F)(F)F)n3)ccc2C1 [Compound 54]", "pIC50": "6.30 to 6.70"}
{"Compound": "COC[C@H]1COc2cc(-c3noc(C(F)(F)F)n3)ccc2CN1C(=O)C1(C)CCOCC1 [Compound 26]", "pIC50": "> 6.70"}
{"Compound": "COCC1(C(=O)N2Cc3c(F)cc(-c4noc(C(F)(F)F)n4)cc3OC[C@@H]2C)COC1 [Compound 30]", "pIC50": "> 6.70"}
{"Compound": "CC1(C(=O)N2Cc3ccc(-c4nnc(C(F)F)o4)cc3OC[C@@H]2c2ccccc2)CCOCC1 [Compound 3]", "pIC50": "> 6.70"}
{"Compound": "C[C@H]1COc2cc(-c3noc(C(F)(F)F)n3)cc(F)c2CN1C(=O)C1(C)COC1 [Compound 1]", "pIC50": "> 6.70"}
{"Compound": "CC1(C(=O)N2Cc3ccc(-c4noc(C(F)(F)F)n4)cc3OC[C@@H]2c2ccccc2)CCCOC1 (single isomer, unassigned) [Compound 14]", "pIC50": "5.30 to 6.30"}
{"Compound": "C[C@H]1COc2cc(-c3noc(C(F)(F)F)n3)cc(F)c2CN1C(=O)c1ccccc1 [Compound 44]", "pIC50": "6.30 to 6.70"}
{"Compound": "CC1(C(=O)N2CCOc3cc(-c4noc(C(F)(F)F)n4)ccc3C2)COC1 [Compound 52]", "pIC50": "6.30 to 6.70"}
{"Compound": "O=C(N1Cc2ccc(-c3noc(C(F)(F)F)n3)cc2OC[C@@H]1c1ccccc1)C(F)(F)F [Compound 6]", "pIC50": "5.30 to 6.30"}
{"Compound": "CC(=O)N1Cc2c(F)cc(-c3noc(C(F)(F)F)n3)cc2OC[C@@H]1C [Compound 25]", "pIC50": "6.30 to 6.70"}
{"Compound": "CC1(C(=O)N2Cc3ccc(-c4noc(C(F)(F)F)n4)cc3OC[C@@H]2c2ccccc2)CCOCC1 [Compound 4]", "pIC50": "> 6.70"}
{"Compound": "CCN1CCC(C)(C(=O)N2Cc3c(F)cc(-c4noc(C(F)(F)F)n4)cc3OC[C@@H]2C)CC1 [Compound 55]", "pIC50": "6.30 to 6.70"}
{"Compound": "FC(F)(F)c1nc(-c2ccc3c(c2)OCCN(c2nc4ccccc4[nH]2)C3)no1 [Compound 51]", "pIC50": "> 6.70"}
{"Compound": "CC1(C(=O)N2Cc3ccc(-c4noc(C(F)(F)F)n4)cc3OC[C@@H]2c2ccccc2)COC1 [Compound 5]", "pIC50": "> 6.70"}
{"Compound": "CC(C)(C)C(=O)N1CCOc2cc(-c3noc(C(F)(F)F)n3)cc(F)c2C1 [Compound 29]", "pIC50": "> 6.70"}
{"Compound": "C[C@H]1COc2cc(-c3noc(C(F)(F)F)n3)cc(F)c2CN1C(=O)CCN(C)C [Compound 42]", "pIC50": "6.30 to 6.70"}
